Data provenance: patent US4339442A

Tested on: fat cells
Assay: Synthesis of fat from glucose in fat cells
Type: cell-based, male wister rats
Conditions: 20 μg/ml; 37° C., half an hour
metric_name: Power for synthesis of neutral fat from glucose

# molecule, observed_value
measured = [
    ("CC(C)=CCC[C@](C)(O[C@@H]1O[C@H](CO[C@@H]2O[C@@H](C)[C@H](O)[C@@H](O)[C@H]2O)[C@@H](O)[C@H](O)[C@H]1O)[C@H]1CC[C@]2(C)[C@@H]1[C@H](O)C[C@@H]1[C@@]3(C)CC[C@H](O[C@@H]4O[C@H](CO)[C@@H](O)[C@H](O)[C@H]4O)C(C)(C)[C@@H]3CC[C@]12C", "11,650 cpm/g"),
    ("CC(C)=CCC[C@](C)(O[C@@H]1O[C@H](CO[C@@H]2O[C@H](CO)[C@@H](O)[C@H](O)[C@H]2O)[C@@H](O)[C@H](O)[C@H]1O)[C@H]1CC[C@]2(C)[C@@H]1[C@H](O)C[C@@H]1[C@@]3(C)CC[C@H](O[C@@H]4O[C@H](CO[C@@H]5O[C@@H](C)[C@H](O)[C@@H](O)[C@H]5O)[C@@H](O)[C@H](O)[C@H]4O)C(C)(C)[C@@H]3CC[C@]12C", "12,650 cpm/g"),
    ("CC(C)=CCC[C@](C)(O[C@@H]1O[C@H](CO[C@@H]2OC[C@@H](O)[C@H](O)[C@H]2O)[C@@H](O)[C@H](O)[C@H]1O)[C@H]1CC[C@]2(C)[C@@H]1[C@H](O)C[C@@H]1[C@@]3(C)CC[C@H](O)C(C)(C)[C@@H]3CC[C@]12C", "12,650 cpm/g"),
    ("CC(=CCCC(C)(OC1OC(COC2OC(C)C(O)C(O)C2O)C(O)C(O)C1O)C1CCC2(C)C1C(O)CC1C3(C)CCC(OC4OC(CO)C(O)C(O)C4OC4OC(CO)C(O)C(O)C4O)C(C)(C)C3CCC12C)CO (stereo not shown)", "8,165 cpm/g"),
]

---

Test system: fat cells
Assay: Decomposition by adrenalin of the fat in the fat cells
Assay type: cell-based, male wister rats
Conditions: Rattus norvegicus, 2 h; adrenalin 1 μg/ml + saponin 20 μg/ml; 37° C., two hours; read-out: Rate of inhibition

# compound, units_text, inhibition at 20 µg/mL
data = [
    ("CC(=CCC[C@](C)(O[C@@H]1O[C@H](CO[C@@H]2OC[C@@H](O)[C@H](O)[C@H]2O)[C@@H](O)[C@H](O)[C@H]1O)[C@H]1CC[C@]2(C)[C@@H]1[C@H](O)C[C@@H]1[C@@]3(C)CC[C@H](O)C(C)(C)[C@@H]3CC[C@]12C)CO [gynosaponin U]", "%", 2),
    ("CC(=CCC[C@](C)(O[C@@H]1O[C@H](CO)[C@@H](O)[C@H](O)[C@H]1O)[C@H]1CC[C@]2(C)[C@@H]1[C@H](O)C[C@@H]1[C@@]3(C)CC[C@H](O)C(C)(C)[C@@H]3CC[C@]12C)CO [progynosapogenin O1]", "%", 11),
    ("CC(C)=CCC[C@](C)(O[C@@H]1O[C@H](CO[C@@H]2O[C@H](CO)[C@@H](O)[C@H](O)[C@H]2O)[C@@H](O)[C@H](O)[C@H]1O)[C@H]1CC[C@]2(C)[C@@H]1[C@H](O)C[C@@H]1[C@@]3(C)CC[C@H](O[C@@H]4O[C@H](CO)[C@@H](O)[C@H](O)[C@H]4O)C(C)(C)[C@@H]3CC[C@]12C [gynosaponin S]", "%", 4),
    ("CC(C)=CCC[C@](C)(O[C@@H]1O[C@H](CO[C@@H]2O[C@@H](C)[C@H](O)[C@@H](O)[C@H]2O)[C@@H](O)[C@H](O)[C@H]1O)[C@H]1CC[C@]2(C)[C@@H]1[C@H](O)C[C@@H]1[C@@]3(C)CC[C@H](O[C@@H]4O[C@H](CO)[C@@H](O)[C@H](O)[C@H]4O[C@@H]4O[C@H](CO)[C@@H](O)[C@H](O)[C@H]4O)C(C)(C)[C@@H]3CC[C@]12C [gynosaponin E]", "%", 33),
    ("CC(=CCCC(C)(OC1OC(COC2OC(C)C(O)C(O)C2O)C(O)C(O)C1O)C1CCC2(C)C1C(O)CC1C3(C)CCC(OC4OC(CO)C(O)C(O)C4OC4OC(CO)C(O)C(O)C4O)C(C)(C)C3CCC12C)CO (centres unmarked) [gynosaponin P]", "%", 10),
    ("CC(C)=CCC[C@](C)(O[C@@H]1O[C@H](CO[C@@H]2O[C@@H](C)[C@H](O)[C@@H](O)[C@H]2O)[C@@H](O)[C@H](O)[C@H]1O)[C@H]1CC[C@]2(C)[C@@H]1[C@H](O)C[C@@H]1[C@@]3(C)CC[C@H](O[C@@H]4O[C@H](CO)[C@@H](O)[C@H](O)[C@H]4O)C(C)(C)[C@@H]3CC[C@]12C [gynosaponin J]", "%", 7),
    ("CC(C)=CCC[C@](C)(O[C@@H]1O[C@H](CO[C@@H]2O[C@@H](C)[C@H](O)[C@@H](O)[C@H]2O)[C@@H](O)[C@H](O)[C@H]1O)[C@H]1CC[C@]2(C)[C@@H]1[C@H](O)C[C@@H]1[C@@]3(C)CC[C@H](O)C(C)(C)[C@@H]3CC[C@]12C [gynosaponin N]", "%", 6),
    ("CC(C)=CCC[C@](C)(O[C@@H]1O[C@H](CO[C@@H]2OC[C@@H](O)[C@H](O)[C@H]2O)[C@@H](O)[C@H](O)[C@H]1O)[C@H]1CC[C@]2(C)[C@@H]1[C@H](O)C[C@@H]1[C@@]3(C)CC[C@H](O[C@@H]4O[C@H](CO)[C@@H](O)[C@H](O)[C@H]4O[C@@H]4OC[C@@H](O)[C@H](O)[C@H]4O)C(C)(C)[C@@H]3CC[C@]12C [gynosaponin Q]", "%", 4),
]

---

System: fat cells
Test: Synthesis of fat from glucose in fat cells
Assay type: cell-based, male wister rats
Conditions: 20 μg/ml; 37° C., half an hour
Each entry below carries its recorded Power for synthesis of neutral fat from glucose.
metric_name: Power for synthesis of neutral fat from glucose

# structure_as_smiles, system_under_test, observed_value
records = [
    ("CC(C)=CCC[C@](C)(O[C@@H]1O[C@H](CO[C@@H]2O[C@@H](C)[C@H](O)[C@@H](O)[C@H]2O)[C@@H](O)[C@H](O)[C@H]1O)[C@H]1CC[C@]2(C)[C@@H]1[C@H](O)C[C@@H]1[C@@]3(C)CC[C@H](O[C@@H]4O[C@H](CO[C@@H]5O[C@@H](C)[C@H](O)[C@@H](O)[C@H]5O)[C@@H](O)[C@H](O)[C@H]4O)C(C)(C)[C@@H]3CC[C@]12C", "fat cells", "8,925 cpm/g"),
    ("CC(=CCC[C@](C)(O[C@@H]1O[C@H](CO)[C@@H](O)[C@H](O)[C@H]1O)[C@H]1CC[C@]2(C)[C@@H]1[C@H](O)C[C@@H]1[C@@]3(C)CC[C@H](O)C(C)(C)[C@@H]3CC[C@]12C)CO", "fat cells", "11,200 cpm/g"),
    ("CC(=CCC[C@](C)(O[C@@H]1O[C@H](CO[C@@H]2OC[C@@H](O)[C@H](O)[C@H]2O)[C@@H](O)[C@H](O)[C@H]1O)[C@H]1CC[C@]2(C)[C@@H]1[C@H](O)C[C@@H]1[C@@]3(C)CC[C@H](O)C(C)(C)[C@@H]3CC[C@]12C)CO", "fat cells", "13,100 cpm/g"),
]

---

System: fat cells
Assay: Synthesis of fat from glucose in fat cells
Type: cell-based, male wister rats
Conditions: 20 μg/ml; 37° C., half an hour
metric_name: Power for synthesis of neutral fat from glucose

# compound, observed_value
rows = [
    ("CC(C)=CCC[C@](C)(O[C@@H]1O[C@H](CO[C@@H]2O[C@H](CO)[C@@H](O)[C@H](O)[C@H]2O)[C@@H](O)[C@H](O)[C@H]1O)[C@H]1CC[C@]2(C)[C@@H]1[C@H](O)C[C@@H]1[C@@]3(C)CC[C@H](O[C@@H]4O[C@H](CO)[C@@H](O)[C@H](O)[C@H]4O)C(C)(C)[C@@H]3CC[C@]12C [gynosaponin S]", "10,100 cpm/g"),
    ("CC(C)=CCC[C@](C)(O[C@@H]1O[C@H](CO[C@@H]2OC[C@@H](O)[C@H](O)[C@H]2O)[C@@H](O)[C@H](O)[C@H]1O)[C@H]1CC[C@]2(C)[C@@H]1[C@H](O)C[C@@H]1[C@@]3(C)CC[C@H](O[C@@H]4O[C@H](CO)[C@@H](O)[C@H](O)[C@H]4O)C(C)(C)[C@@H]3CC[C@]12C [gynosaponin I]", "10,564 cpm/g"),
    ("CC(C)=CCC[C@](C)(O[C@@H]1O[C@H](CO[C@@H]2OC[C@@H](O)[C@H](O)[C@H]2O)[C@@H](O)[C@H](O)[C@H]1O)[C@H]1CC[C@]2(C)[C@@H]1[C@H](O)C[C@@H]1[C@@]3(C)CC[C@H](O[C@@H]4O[C@H](CO)[C@@H](O)[C@H](O)[C@H]4O[C@@H]4OC[C@@H](O)[C@H](O)[C@H]4O)C(C)(C)[C@@H]3CC[C@]12C [gynosaponin Q]", "11,620 cpm/g"),
]
